assay: Inhibition of Acinetobacter johnsonii SCO1
The entries below come with measured IC50 values attached.
property measured: IC50

In [3]: df
Out[3]:
                                        mol  property_measured  observed
0    O=C(O)[C@H]1/C(=C/CO)O[C@@H]2CC(=O)N21               IC50    300 nM
1  C[C@]1(Cn2ccnn2)[C@H](C(=O)O)N2C(=O)C[C@H]2S1(=O)=O               IC50   1200 nM

----------
tested on: Acinetobacter johnsonii; assay: Activity of Acinetobacter johnsonii SCO1
Field 'label' (enum: y / n). Set to y when kcat is strictly under 0.3 s⁻¹; else n.

In [3]: df
Out[3]:
                                   compound  cat
0  C[C@H]1[C@H](NC(=O)/C(=N\OC(C)(C)C(=O)O)c2csc(N)n2)C(=O)N1S(=O)(=O)O [AZTREONAM]    y
1  CO/N=C(\C(=O)N[C@@H]1C(=O)N2C(C(=O)O)=C(COC(C)=O)CS[C@H]12)c1csc(N)n1 [CEFOTAXIME]    y
2  CO[C@@]1(NC(=O)Cc2cccs2)C(=O)N2C(C(=O)O)=C(COC(N)=O)CS[C@@H]21 [CEFOXITIN]    y
3  C[C@@H](O)[C@H]1C(=O)N2C(C(=O)O)=C(SCCNC=N)C[C@H]12 [IMIPENEM ANHYDROUS]    y
4  CCN1CCN(C(=O)N[C@@H](C(=O)N[C@@H]2C(=O)N3[C@@H]2SC(C)(C)[C@@H]3C(=O)O)c2ccccc2)C(=O)C1=O [PIPERACILLIN]    n
5  CC1(C)S[C@@H]2[C@H](NC(=O)[C@H](C(=O)O)c3ccsc3)C(=O)N2[C@H]1C(=O)O [TICARCILLIN]    n

----------
test system: Acinetobacter johnsonii; assay: Ratio of kcat to Km for Acinetobacter johnsonii SCO1
property measured: Ratio (mM⁻¹ s⁻¹)

In [3]: df
Out[3]:
                                   compound                      tgt  readout_unit  observed
0  CC1(C)S[C@@H]2[C@H](NC(=O)[C@H](C(=O)O)c3ccsc3)C(=O)N2[C@H]1C(=O)O [TICARCILLIN]  Acinetobacter johnsonii      mM⁻¹ s⁻¹       450
1  CC1(C)S[C@@H]2[C@H](NC(=O)[C@H](N)c3ccccc3)C(=O)N2[C@H]1C(=O)O  Acinetobacter johnsonii      mM⁻¹ s⁻¹      6700
2  CCN1CCN(C(=O)N[C@@H](C(=O)N[C@@H]2C(=O)N3[C@@H]2SC(C)(C)[C@@H]3C(=O)O)c2ccccc2)C(=O)C1=O [PIPERACILLIN]  Acinetobacter johnsonii      mM⁻¹ s⁻¹        40
3  CO/N=C(\C(=O)N[C@@H]1C(=O)N2C(C(=O)O)=C(COC(C)=O)CS[C@H]12)c1csc(N)n1 [CEFOTAXIME]  Acinetobacter johnsonii      mM⁻¹ s⁻¹      0.05
4  C[C@@H](O)[C@H]1C(=O)N2C(C(=O)O)=C(SCCNC=N)C[C@H]12 [IMIPENEM ANHYDROUS]  Acinetobacter johnsonii      mM⁻¹ s⁻¹     0.008
5  CC(=O)OCC1=C(C(=O)O)N2C(=O)[C@@H](NC(=O)Cc3cccs3)[C@H]2SC1 [CEPHALOTHIN]  Acinetobacter johnsonii      mM⁻¹ s⁻¹         1
6  CO/N=C(\C(=O)N[C@@H]1C(=O)N2C(C(=O)[O-])=C(C[N+]3(C)CCCC3)CS[C@H]12)c1csc(N)n1 [CEFEPIME]  Acinetobacter johnsonii      mM⁻¹ s⁻¹       0.8

These entries and their values trace back to ChEMBL document CHEMBL1145470.
